This collection of values is drawn from ChEMBL document CHEMBL1151601.

# Tested on: Staphylococcus aureus
# protocol_notes: Tested for minimum inhibitory concentration against Staphylococcus aureus ATCC 25293
# Assay type: functional
parameter: MIC (µg/mL)
Report as a plain number; the unit µg/mL is understood.

>>> df
                      smiles_representation  measurement
0  CC(=O)NCCCC[C@H](C(=O)N[C@@H]1C(=O)N2[C@@H]1SC(C)(C)[C@@H]2C(=O)O)c1ccccc1           20
1  CC1(C)S[C@@H]2[C@H](NC(=O)[C@H](N)c3ccccc3)C(=O)N2[C@H]1C(=O)O          1.6

# context switch: different molecule, same MIC
Noted for `CC1(C)S[C@@H]2[C@H](NC(=O)[C@@H](CCCCN)c3ccccc3)C(=O)N2[C@H]1C(=O)O` : its MIC reads 5
